The measurements presented in this section are drawn from patent US12186398B2.

EXPERIMENT DESCRIPTION: Literature IV PK of FLU solution in rats (Park and Kim; Knihinicki et al)
Format: in vivo
MEASUREMENT SETUP: rat, plasma, IV 2.5 mg/kg, Park and Kim data fitted to 2 compartmental model
EXPERIMENTAL READOUT: clearance (mL/min/kg)

* CC(C(=O)O)c1ccc(-c2ccccc2)c(F)c1 (stereo not shown) [FLU, flurbiprofen] | 0.81
